Provide the recorded U251 CTG (IC50 M) for the entries that follow.
Biological target: T1, human B7H3 on cancer cell lines (human, UniProt Q5ZPR3 29-534)
T1 sequence (looked up): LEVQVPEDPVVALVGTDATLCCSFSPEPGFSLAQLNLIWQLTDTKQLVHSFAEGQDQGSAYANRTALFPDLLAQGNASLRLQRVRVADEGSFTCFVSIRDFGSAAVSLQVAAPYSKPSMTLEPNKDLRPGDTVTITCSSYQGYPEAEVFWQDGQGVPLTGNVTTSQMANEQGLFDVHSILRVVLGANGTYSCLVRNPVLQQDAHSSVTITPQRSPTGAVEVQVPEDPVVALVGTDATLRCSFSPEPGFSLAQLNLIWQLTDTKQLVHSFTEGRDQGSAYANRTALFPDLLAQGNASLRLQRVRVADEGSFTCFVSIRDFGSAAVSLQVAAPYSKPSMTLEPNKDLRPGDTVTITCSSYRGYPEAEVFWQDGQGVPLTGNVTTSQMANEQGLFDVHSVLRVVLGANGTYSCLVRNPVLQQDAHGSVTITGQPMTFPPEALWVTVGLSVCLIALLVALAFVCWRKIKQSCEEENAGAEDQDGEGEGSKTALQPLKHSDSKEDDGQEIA
Assay: cell-based or functional assay
The answer is to be given in nM; state only the numeric part.

For the binder shown here, ADC Example 257-6499 (antibody, human IgG1, lambda, V domains shown, drug-linker from Intermediate F257 on Cys, sites not stated) VH: EVQLLESGGGLVQPGGSLRLSCAASGFTFRDFYMNWIRQAPGKGLEWVSSISASGKYTYYADSVKGRFTISRDNSKNTLYLQMNSLRAEDTAVYYCAREWGYCTNDVCRNWFDPWGQGTLVTVSS VL: QSVLTQPPSASGTPGQRVTISCSGGYSNVGGNNVNWYQQLPGTAPKLLIYGNSNRPSGVPDRFSGSKSGTSASLAISGLRSEDEADYYCQSYDSSLSGSVFGGGTKLTVLG , give the reported U251 CTG (IC50 M).
0.0736

For the binder shown here, ADC Example 281-6501 (antibody, human IgG1, lambda, V domains shown, drug-linker from Intermediate F281 on Cys, sites not stated) VH: EVQLLESGGGLVQPGGSLRLSCAASGFTFSSYGMHWVRQAPGKGLEWVSAISGSGGSTYYADSVKGRFTISRDNSKNTLYLQMNSLRAEDTAVYYCARGSNYLGMDVWGQGTLVTVSS VL: QSVLTQPPSASGTPGQRVTISCSGSSSNIGRNIVNWYQQLPGTAPKLLIYRSNQRPSGVPDRFSGSKSGTSASLAISGLRSEDEADYYCQTWGTGWVFGGGTKLTVLG , give the reported U251 CTG (IC50 M).
29.9
